# systemTested: Mu-type opioid receptor (Homo sapiens, UniProt P35372)
# Sequence (P35372 whole entry): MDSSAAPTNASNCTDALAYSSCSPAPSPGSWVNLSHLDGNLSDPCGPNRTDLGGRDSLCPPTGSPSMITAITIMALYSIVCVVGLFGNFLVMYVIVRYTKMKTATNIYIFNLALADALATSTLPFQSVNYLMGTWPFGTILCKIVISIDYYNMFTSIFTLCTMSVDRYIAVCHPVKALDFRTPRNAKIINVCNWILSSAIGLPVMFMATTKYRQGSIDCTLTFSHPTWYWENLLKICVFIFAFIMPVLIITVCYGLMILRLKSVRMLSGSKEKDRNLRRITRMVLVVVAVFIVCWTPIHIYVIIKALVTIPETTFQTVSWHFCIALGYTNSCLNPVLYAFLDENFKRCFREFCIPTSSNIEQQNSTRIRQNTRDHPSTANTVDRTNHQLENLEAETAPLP
# experimentDescription: Agonist activity at human mu opioid receptor expressed in CHO cells assessed as maximal stimulation of [35S]GTPgammaS binding relatiev to DAMGO
# Type: functional, cell-based
measuredQuantity: Emax (%)

1) CC(C)(CCCCCCC(C)(C)C(=O)Oc1ccc2c(c1)[C@@]13CCCC[C@H]1[C@@H](C2)N(CC1CCC1)CC3)C(=O)Oc1ccc2c(c1)[C@@]13CCCC[C@H]1[C@@H](C2)N(CC1CCC1)CC3 = 40
2) CC(CCCCCCC(C)C(=O)Oc1ccc2c(c1)[C@@]13CCCC[C@H]1[C@@H](C2)N(CC1CCC1)CC3)C(=O)Oc1ccc2c(c1)[C@@]13CCCC[C@H]1[C@@H](C2)N(CC1CCC1)CC3 (stereo not given in full) = 26
3) CC(CCCCCCC(C)C(=O)Oc1ccc2c(c1)[C@@]13CCCC[C@H]1[C@@H](C2)N(CC1CCC1)CC3)C(=O)O (stereo not given in full) = 25
4) O=C(O)CCCCCCCCC(=O)Oc1ccc2c(c1)[C@@]13CCCC[C@H]1[C@@H](C2)N(CC1CCC1)CC3 = 110
5) C=CCN1CC[C@]23c4c5ccc(OC(=O)CCCCCCCCC(=O)Oc6ccc7c(c6)[C@@]68CCCC[C@H]6C(C7)N(CC6CCC6)CC8)c4O[C@H]2CCC[C@H]3[C@H]1C5 = 34

----------
Reported EC50 by item:
# systemTested: Kappa-type opioid receptor (Homo sapiens, UniProt P41145)
# Sequence (P41145 whole entry): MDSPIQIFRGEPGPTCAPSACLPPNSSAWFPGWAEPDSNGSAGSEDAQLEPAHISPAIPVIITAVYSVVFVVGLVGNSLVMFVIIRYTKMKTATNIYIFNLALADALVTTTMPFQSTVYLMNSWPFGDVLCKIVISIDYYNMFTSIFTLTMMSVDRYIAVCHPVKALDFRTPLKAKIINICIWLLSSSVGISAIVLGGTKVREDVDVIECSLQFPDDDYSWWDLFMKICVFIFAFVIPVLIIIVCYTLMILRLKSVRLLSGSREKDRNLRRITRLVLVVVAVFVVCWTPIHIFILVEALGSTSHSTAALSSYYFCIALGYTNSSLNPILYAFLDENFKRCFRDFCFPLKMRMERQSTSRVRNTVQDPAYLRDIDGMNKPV
# experimentDescription: Agonist activity at human kappa opioid receptor expressed in CHO cells assessed as stimulation of [35S]GTPgammaS binding
measuredQuantity: EC50 (nM)

1) O=C(O)CCCCCCCCC(=O)Oc1ccc2c(c1)[C@@]13CCCC[C@H]1[C@@H](C2)N(CC1CCC1)CC3 = 2.8
2) CC(CCCCCCC(C)C(=O)Oc1ccc2c(c1)[C@@]13CCCC[C@H]1[C@@H](C2)N(CC1CCC1)CC3)C(=O)O (stereo not given in full) = 4.9
3) CC(CCCCCCC(C)C(=O)Oc1ccc2c(c1)[C@@]13CCCC[C@H]1[C@@H](C2)N(CC1CCC1)CC3)C(=O)Oc1ccc2c(c1)[C@@]13CCCC[C@H]1[C@@H](C2)N(CC1CCC1)CC3 (stereo not given in full) = 7.3
4) CC(C)(CCCCCCC(C)(C)C(=O)Oc1ccc2c(c1)[C@@]13CCCC[C@H]1[C@@H](C2)N(CC1CCC1)CC3)C(=O)Oc1ccc2c(c1)[C@@]13CCCC[C@H]1[C@@H](C2)N(CC1CCC1)CC3 = 6.4
5) C=CCN1CC[C@]23c4c5ccc(OC(=O)CCCCCCCCC(=O)Oc6ccc7c(c6)[C@@]68CCCC[C@H]6C(C7)N(CC6CCC6)CC8)c4O[C@H]2CCC[C@H]3[C@H]1C5 = 1.6

----------
Endpoint: pKi. System: Mu-type opioid receptor (Homo sapiens, UniProt P35372). Items follow.
pKi: −log10 of the molar value.
measuredQuantity: pKi

1. CC(C)(CCCCCCC(C)(C)C(=O)Oc1ccc2c(c1)[C@@]13CCCC[C@H]1[C@@H](C2)N(CC1CCC1)CC3)C(=O)OCc1ccccc1 = 8.07
2. COC(=O)C(C)CCCCCCC(C)C(=O)Oc1ccc2c(c1)[C@@]13CCCC[C@H]1[C@@H](C2)N(CC1CCC1)CC3 (stereo partly drawn) = 8.77
3. CC(C)(CCCCCCC(C)(C)C(=O)Oc1ccc2c(c1)[C@@]13CCCC[C@H]1[C@@H](C2)N(CC1CCC1)CC3)C(=O)Oc1ccc2c(c1)[C@@]13CCCC[C@H]1[C@@H](C2)N(CC1CCC1)CC3 = 9.33

----------
# systemTested: Kappa-type opioid receptor (Homo sapiens, UniProt P41145)
pKi: −log10 of the molar value.
measuredQuantity: pKi

1. CC(CCCCCCC(C)C(=O)Oc1ccc2c(c1)[C@@]13CCCC[C@H]1[C@@H](C2)N(CC1CCC1)CC3)C(=O)O (some centres undefined) = 9.38
2. CC(CCCCCCC(C)C(=O)Oc1ccc2c(c1)[C@@]13CCCC[C@H]1[C@@H](C2)N(CC1CCC1)CC3)C(=O)Oc1ccc2c(c1)[C@@]13CCCC[C@H]1[C@@H](C2)N(CC1CCC1)CC3 (some centres undefined) = 9.21
3. CC(C)(CCCCCCC(C)(C)C(=O)Oc1ccc2c(c1)[C@@]13CCCC[C@H]1[C@@H](C2)N(CC1CCC1)CC3)C(=O)OCc1ccccc1 = 8.33
4. C=CCN1CC[C@]23c4c5ccc(OC(=O)CCCCCCCCC(=O)Oc6ccc7c(c6)[C@@]68CCCC[C@H]6C(C7)N(CC6CCC6)CC8)c4O[C@H]2CCC[C@H]3[C@H]1C5 = 9.89
5. O=C(O)CCCCCCCCC(=O)Oc1ccc2c(c1)[C@@]13CCCC[C@H]1[C@@H](C2)N(CC1CCC1)CC3 = 9.54
6. CC(CCCCC(C)C(=O)Oc1ccc2c(c1)[C@@]13CCCC[C@H]1[C@@H](C2)N(CC1CCC1)CC3)C(=O)Oc1ccc2c(c1)[C@@]13CCCC[C@H]1[C@@H](C2)N(CC1CCC1)CC3 (some centres undefined) = 8.66
7. CC(C)(CCCCCCC(C)(C)C(=O)Oc1ccc2c(c1)[C@@]13CCCC[C@H]1[C@@H](C2)N(CC1CCC1)CC3)C(=O)O = 7.74
8. COC(=O)C(C)CCCCCCC(C)C(=O)Oc1ccc2c(c1)[C@@]13CCCC[C@H]1[C@@H](C2)N(CC1CCC1)CC3 (some centres undefined) = 9.03
9. CC(C)(CCCCCCC(C)(C)C(=O)Oc1ccc2c(c1)[C@@]13CCCC[C@H]1[C@@H](C2)N(CC1CCC1)CC3)C(=O)Oc1ccc2c(c1)[C@@]13CCCC[C@H]1[C@@H](C2)N(CC1CCC1)CC3 = 9.33

----------
The next entries give measured log10(Ki) for Mu-type opioid receptor (Homo sapiens, UniProt P35372).
measuredQuantity: log10(Ki) (log10 of the value in nM)

1. O=C(O)CCCCCCCCC(=O)Oc1ccc2c(c1)[C@@]13CCCC[C@H]1[C@@H](C2)N(CC1CCC1)CC3 = -0.15
2. CC(CCCCCCC(C)C(=O)Oc1ccc2c(c1)[C@@]13CCCC[C@H]1[C@@H](C2)N(CC1CCC1)CC3)C(=O)Oc1ccc2c(c1)[C@@]13CCCC[C@H]1[C@@H](C2)N(CC1CCC1)CC3 (stereo partly specified) = -0.02
3. C=CCN1CC[C@]23c4c5ccc(OC(=O)CCCCCCCCC(=O)Oc6ccc7c(c6)[C@@]68CCCC[C@H]6C(C7)N(CC6CCC6)CC8)c4O[C@H]2CCC[C@H]3[C@H]1C5 = -0.37
4. CC(CCCCCCC(C)C(=O)Oc1ccc2c(c1)[C@@]13CCCC[C@H]1[C@@H](C2)N(CC1CCC1)CC3)C(=O)O (stereo partly specified) = -0.34
5. CC(C)(CCCCCCC(C)(C)C(=O)Oc1ccc2c(c1)[C@@]13CCCC[C@H]1[C@@H](C2)N(CC1CCC1)CC3)C(=O)O = 1.67
6. CC(CCCCC(C)C(=O)Oc1ccc2c(c1)[C@@]13CCCC[C@H]1[C@@H](C2)N(CC1CCC1)CC3)C(=O)Oc1ccc2c(c1)[C@@]13CCCC[C@H]1[C@@H](C2)N(CC1CCC1)CC3 (stereo partly specified) = 0.46

----------
# systemTested: Mu-type opioid receptor (Homo sapiens)
# experimentDescription: Agonist activity at human mu opioid receptor expressed in CHO cells assessed as stimulation of [35S]GTPgammaS binding
# Format: functional, cell-based
pEC50: −log10 of the molar value.
measuredQuantity: pEC50

1. O=C(O)CCCCCCCCC(=O)Oc1ccc2c(c1)[C@@]13CCCC[C@H]1[C@@H](C2)N(CC1CCC1)CC3 = 8.52
2. CC(C)(CCCCCCC(C)(C)C(=O)Oc1ccc2c(c1)[C@@]13CCCC[C@H]1[C@@H](C2)N(CC1CCC1)CC3)C(=O)Oc1ccc2c(c1)[C@@]13CCCC[C@H]1[C@@H](C2)N(CC1CCC1)CC3 = 7.96
3. CC(CCCCCCC(C)C(=O)Oc1ccc2c(c1)[C@@]13CCCC[C@H]1[C@@H](C2)N(CC1CCC1)CC3)C(=O)O (stereo not given in full) = 7.89
4. CC(CCCCCCC(C)C(=O)Oc1ccc2c(c1)[C@@]13CCCC[C@H]1[C@@H](C2)N(CC1CCC1)CC3)C(=O)Oc1ccc2c(c1)[C@@]13CCCC[C@H]1[C@@H](C2)N(CC1CCC1)CC3 (stereo not given in full) = 8.15
5. C=CCN1CC[C@]23c4c5ccc(OC(=O)CCCCCCCCC(=O)Oc6ccc7c(c6)[C@@]68CCCC[C@H]6C(C7)N(CC6CCC6)CC8)c4O[C@H]2CCC[C@H]3[C@H]1C5 = 8.70
